Entries annotated with measured ε (molar extinction coefficient)
assay: UV absorption spectra measured in solution; type: physicochemical; details: at absorption maximum
Kindly answer with a numeric value in L/mol/cm, unit omitted.

Known ε (molar extinction coefficient) results, listed for orientation:
May I ask what ε (molar extinction coefficient) has been recorded for "CCOC(=O)C1=C(C#N)C(=O)N(C)C(=O)/C1=C/C=C/N(C)C" ?
31630

If you can, please state the reported ε (molar extinction coefficient) value of "CCOC(=O)C1=C(C#N)C(=O)N(C)C(=O)/C1=C/C=C1\N(C)c2ccccc2C1(C)C" .
56010

Param item = "CC1=C([n+]2ccccc2)C(=O)NC(=O)/C1=C/C=C1\N(C)c2ccccc2C1(C)C" ; retrieve measured ε (molar extinction coefficient).
86510

We next turn to a different compound, shown below.
// ε (molar extinction coefficient) lookup, key: "CCCCCCCCCCCCN1C(=O)/C(=C/c2ccc(N(C)C)o2)C(=O)N(C)C1=O"
53360

----------
Listed next: entries and their corresponding λ1/2-λ1/10.
assay: UV absorption spectra measured in solution; type: physicochemical; conditions: Table 2, on the long wavelength flank
Marks after values point to notes of the source that are not given here.

Look up λ1/2-λ1/10: "CCN1C(=O)C(=CC=C2N(C)c3ccccc3C2(C)C)SC1=S"
25^4) nm

Quick check: λ1/2-λ1/10 of "CCN1CCCC1=CC=C1SC(=S)N(CC)C1=O" ?
10^4) nm

Tell me the measured λ1/2-λ1/10 of "CC1=C(C#N)C(=O)N(C2CCCCC2)C(=O)C1=CC=C1N(C)c2ccccc2C1(C)C" , please.
11^4) nm

Now look at this entry.
Need λ1/2-λ1/10, item "CCCCN1C(=O)C(=CC=C2N(C)c3ccccc3C2(C)C)C(C)=C(C#N)C1=O"
12^4) nm

----------
Experiment: UV absorption spectra measured in solution
Type: physicochemical
Details: Table 2
Method: In the case of a write-once optical data carrier according to the invention which is written on and read by means of the light of a blue laser, preference is given to merocyanine dyes whose absorption maximum λmax1 is in the range from 340 to 410 nm, […] half of the […] one tenth of the absorbance value at λmax1 are preferably not more than 50 nm apart. […] The absorption spectra are measured, for example, in solution. […]
Classify by measured ε: yes if it is equal to or exceeds 60000 L/mol/cm, no if it is smaller.

Hi, just wondering whether "CC1=C(C#N)C(=O)N(C2CCCCC2)C(=O)C1=CC=C1N(C)c2ccccc2C1(C)C" shows ε of 60000 L/mol/cm or higher.
no

Record "CN1C(=CC=C(C#N)c2nc3ccccc3s2)C(C)(C)c2ccccc21" ; criterion: ε no lower than 60000 L/mol/cm. Met?
no

State whether the measured ε reaches 60000 L/mol/cm, counting equality as reaching it, for "CN1C(=CC=C2C(=O)CC(C)(C)CC2=O)C(C)(C)c2ccccc21"
yes

I'd appreciate it if you could say whether "COC(=O)c1ccc2c(c1)C(C)(C)C(=CC=C(C#N)[n+]1ccccc1)N2C.[O-][Cl+3]([O-])([O-])[O-]" has ε at least equal to 60000 L/mol/cm.
no

Would you say "CN1C(=CC=C2C(=O)OC(C)(C)OC2=O)C(C)(C)c2ccccc21" shows ε at minimum 60000 L/mol/cm?
yes

Next:
Please check the record "CCCCN1C(=O)C(=CC=C2N(C)c3ccc(C(=O)OC)cc3C2(C)C)C(=O)c2ccccc21" and state if its ε is at or above 60000 L/mol/cm.
yes

Tell me whether ε is at least 60000 L/mol/cm here: "CN1C(=CC=C2C(=O)c3ccccc3C2=O)C(C)(C)c2ccccc21"
yes

----------
test: UV absorption spectra measured in solution; type: physicochemical; conditions: in methanol
property-name: UV λmax
Answer with the value and then the unit.

Returns the measured UV λmax for the input compound. Input: "CC1=C([n+]2ccccc2)C(=O)NC(=O)/C1=C/C=C1\N(C)c2ccccc2C1(C)C"
513 nm

----------
Known λmax of a selection of compounds
experiment: UV absorption spectra measured in solution; assay type: physicochemical; details: Table 1, in dioxane

Name the reported λmax value associated with the compound "CCN(CC)c1ncc(C=C2C(=O)c3ccccc3C2=O)s1"
472 nm

Using the record for "CCCCN(CCCC)c1ccc(C=C2C(=O)OC(C)(C)OC2=O)o1" , report its λmax.
472 nm

***
For the compound shown here, "CCCCCCCCCCCCN1C(=O)C(=Cc2ccc(N(C)C)o2)C(=O)N(C)C1=O" , give the reported λmax.
483 nm

Fill in: λmax of "CN(C)c1ncc(C(C#N)=C(C#N)C#N)s1" is ___
470 nm

Look up λmax for this compound: "CCCCCCN1C(=O)C(=Cc2ccc(N(C)C)o2)C(C)=C(C#N)C1=O"
535 nm

----------
experiment: UV absorption spectra measured in solution; type: physicochemical; conditions: Table 1
property-name: ε (L/mol/cm)
Hi! Could you send only the number? It should be in L/mol/cm, unit omitted.

// returns reported ε for input "CCCCN(CCCC)c1ncc(C=C2C(=O)N(CC)C(=O)C(C#N)=C2C)s1"
78400

Field request: ε | item: "CCCCN(CCCC)c1ccc(C=C2C(=O)N(C)C(=O)C(C#N)=C2C)o1"
106640

Quick one: ε for "CCCCN(CCCC)c1ccc(C=C2C(=O)N(CCC)C(=O)C(C#N)=C2C)s1" ?
112260

What measured ε goes with "CN(C)c1ncc(C(C#N)=C(C#N)C#N)s1" ?
40990

Please report the recorded ε for "CCN1C(=O)C(=Cc2ccc(N3CCCC3)o2)C(C)=C(C#N)C1=O" .
115603

What value of measured ε is listed for "CCCCN(CCCC)c1ccc(C=C2C(=O)OC(C)(C)OC2=O)o1" ?
70880

Can you look up the measured ε of "CCCCCCN1C(=O)C(=Cc2ccc(N(C)C)o2)C(C)=C(C#N)C1=O" for me?
128960

Looking for the measured ε of "CCCCN(CCCC)c1ccc(C=C2C(=O)N(C)C(=O)N(C)C2=O)o1" , can you help?
117700
